- Target Under Test: human RIP1 kinase domain (2-375) (Homo sapiens (Human))
- Sequence (Q13546 2-375): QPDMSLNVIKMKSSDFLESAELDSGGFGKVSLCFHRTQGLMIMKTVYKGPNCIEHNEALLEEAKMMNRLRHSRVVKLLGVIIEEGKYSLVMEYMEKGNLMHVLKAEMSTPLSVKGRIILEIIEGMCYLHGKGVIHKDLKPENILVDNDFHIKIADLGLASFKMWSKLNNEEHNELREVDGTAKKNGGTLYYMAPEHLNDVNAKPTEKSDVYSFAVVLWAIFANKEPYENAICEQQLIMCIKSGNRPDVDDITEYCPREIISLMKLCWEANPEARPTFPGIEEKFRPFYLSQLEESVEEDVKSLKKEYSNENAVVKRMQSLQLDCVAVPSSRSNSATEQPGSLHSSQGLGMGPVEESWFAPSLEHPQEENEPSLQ
- Method: RIP1 kinase inhibition biochemical assay (Transcreener ADP, fluorescence polarization)
- Experimental Context: apparent Ki (Morrison tight-binding fit); 50 nM enzyme, 50 μM ATP, 2 hours incubation
The reader will find reported pKi values listed item by item below.
The quantity pKi is defined as the negative base-10 logarithm of the molar concentration.

Worked set:
In: Report its pKi with human RIP1 kinase domain (2-375) (Homo sapiens (Human)) as the test system: CCC(=O)c1nc2n(n1)[C@H](c1cnn(C)c1)C[C@@H]2F (single isomer, unassigned)
Out: 7.60

In: Report its pKi with human RIP1 kinase domain (2-375) (Homo sapiens (Human)) as the test system: N#Cc1cccc([C@@H]2C[C@H](F)c3nc(C(=O)C4CC4)nn32)c1 (single isomer, unassigned)
Out: 7.55

In: Report its pKi with human RIP1 kinase domain (2-375) (Homo sapiens (Human)) as the test system: CC(=O)N1CC(C(=O)c2nc3n(n2)[C@H](c2ccccc2)C[C@@H]3F)C1 (single isomer, unassigned)
Out: 6.89

Further cases:
In: Report its pKi with human RIP1 kinase domain (2-375) (Homo sapiens (Human)) as the test system: O=C(c1nc2n(n1)[C@H](c1cccc(Cl)c1)C[C@@H]2F)C1CC1 (single isomer, unassigned)
Out: 8.19

In: Report its pKi with human RIP1 kinase domain (2-375) (Homo sapiens (Human)) as the test system: `CC(C)(CO)C(=O)c1nc2n(n1)[C@H](c1ccccc1)C[C@@H]2F`
Out: 7.51

Attribution: patent US12344612B2
